target: antiserum As #128 (sheep polyclonal, raised to the alpha subunit of human inhibin, boosted with human recombinant 30-kDa inhibin); test: RIA, competition with iodinated inhibin
Where no end group is shown, it is not given here. The star is where a group is joined. Biotin = O=C1N[C@H]2[C@H](CS[C@H]2CCCCC(=O)*)N1
REPORTED_ENDPOINT: ED50 (nM)

Observe how each entry below is paired with its result.
[
  {
    "BINDER": "Biotin-SGSGRTTSDGGYSFKYET [biotinylated peptide #30 (Set 1) of the human (alpha)C subunit]",
    "ED50, nM": 600
  },
  {
    "BINDER": "Biotin-SGSGMSWPWSPSALRLLQ [biotinylated peptide #4 (Set 1) of the human (alpha)C subunit]",
    "ED50, nM": 3800
  },
  {
    "BINDER": "Biotin-SGSGDGGYSFKYETVPNL [biotinylated peptide #31 (Set 1) of the human (alpha)C subunit]",
    "ED50, nM": 1400
  },
  {
    "BINDER": "Biotin-SGSGLPVPGAPPTPAQPY [biotinylated peptide #21 (Set 1) of the human (alpha)C subunit]",
    "ED50, nM": 156
  }
]

a. Biotin-SGSGPYSLLPGAQPCCAA (cysteine pairing not given here) [biotinylated peptide #24 (Set 1) of the human (alpha)C subunit]
b. Biotin-SGSGGAPPTPAQPYSLLP [biotinylated peptide #22 (Set 1) of the human (alpha)C subunit]
c. Biotin-SGSGLQRPPEEPAAHANC [biotinylated peptide #7 (Set 1) of the human (alpha)C subunit]
**Q:** Put the items in sequence by ED50, from largest down. Submit the labels in the order that the ranking request calls for.
**A:** c, a, b
